Where do these numbers come from? They come from ChEMBL document CHEMBL1201862.

System: DNA dC->dU-editing enzyme APOBEC-3G (Homo sapiens, UniProt Q9HC16)
Sequence (Q9HC16 whole entry): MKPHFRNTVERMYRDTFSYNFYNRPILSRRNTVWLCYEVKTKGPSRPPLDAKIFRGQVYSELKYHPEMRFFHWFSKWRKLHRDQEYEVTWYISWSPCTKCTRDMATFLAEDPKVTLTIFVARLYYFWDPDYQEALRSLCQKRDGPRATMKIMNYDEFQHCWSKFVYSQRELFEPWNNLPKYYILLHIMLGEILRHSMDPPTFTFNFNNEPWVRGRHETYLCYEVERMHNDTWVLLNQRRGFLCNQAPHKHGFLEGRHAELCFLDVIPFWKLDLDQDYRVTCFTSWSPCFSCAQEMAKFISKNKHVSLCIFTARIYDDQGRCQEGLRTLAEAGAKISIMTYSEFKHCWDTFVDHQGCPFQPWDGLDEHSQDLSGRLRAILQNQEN
Method summary: Dose Response confirmation of small molecule APOBEC3G DNA Deaminase Inhibitors via a fluorescence-based single-stranded DNA deaminase assay. [Related pubchem assays (depositor defined):AID493012, AID493028]
Type: functional
Active and inactive are the calls of the source.
Measured parameter: IC50

>  <Compound>
O=[N+]([O-])c1ccc(N2CCN(C(=S)c3cccc([N+](=O)[O-])c3)CC2)cc1

>  <IC50>
47.7 µM (active)

$$$$
>  <Compound>
CCOc1ccc(NC(=O)Cn2sc3nc(C)cc(C)c3c2=O)cc1

>  <IC50>
2.96 µM (active)

$$$$
>  <Compound>
COc1ccc(O)c(C(=O)C2c3ccccc3C(=O)N2c2ccc(C)cc2)c1 (stereo unspecified)

>  <IC50>
37.4 µM (active)

$$$$
>  <Compound>
COc1cc(/C=N/n2c(S)nnc2-c2cc(C)[nH]n2)cc(OC)c1OC

>  <IC50>
2.5 µM (active)

$$$$

For each of the items listed, what is its IC50?
1. COc1ccc(Cc2nnc(S)n2C)cc1Br
2. COc1cc(SSc2cc(OC)cc([N+](=O)[O-])c2N)c(N)c([N+](=O)[O-])c1

18.9 µM (active)
2.54 µM (active)

====

Test system: H4
Method summary: Luminescence Cell-Based Dose Response HTS to Identify Activators of 5'UTR Stem-Loop Driven Prion Protein mRNA Translation in H4 Neuroglioblastoma Cells. [Related pubchem assays: 1829 (Project Summary), 1814 (Primary HTS)]
Assay type: functional
Run conditions: Homo sapiens
Active and inactive are the calls of the source.
Measured parameter: EC50

For orientation, consider the following solved cases.
>  <Record smiles>
CC(C)NC1=NN=C(c2ccc(Cl)c(Cl)c2)CS1

>  <System>
H4

>  <EC50>
0.597 µM (active)

$$$$
>  <Record smiles>
CCC(=O)Oc1cccc(C(=O)Nc2ccc(-c3nnc(-c4ccco4)o3)cc2)c1

>  <System>
H4

>  <EC50>
6.33 µM (active)

$$$$

Entry O=C(Nc1nc(COc2ccccc2)cs1)C12CC3CC(CC(C3)C1)C2 has what EC50?
19 µM (active)

====

Cytochrome P450 2C9 (Homo sapiens, UniProt P11712): reported AC50 for various molecules.
Sequence (P11712 whole entry): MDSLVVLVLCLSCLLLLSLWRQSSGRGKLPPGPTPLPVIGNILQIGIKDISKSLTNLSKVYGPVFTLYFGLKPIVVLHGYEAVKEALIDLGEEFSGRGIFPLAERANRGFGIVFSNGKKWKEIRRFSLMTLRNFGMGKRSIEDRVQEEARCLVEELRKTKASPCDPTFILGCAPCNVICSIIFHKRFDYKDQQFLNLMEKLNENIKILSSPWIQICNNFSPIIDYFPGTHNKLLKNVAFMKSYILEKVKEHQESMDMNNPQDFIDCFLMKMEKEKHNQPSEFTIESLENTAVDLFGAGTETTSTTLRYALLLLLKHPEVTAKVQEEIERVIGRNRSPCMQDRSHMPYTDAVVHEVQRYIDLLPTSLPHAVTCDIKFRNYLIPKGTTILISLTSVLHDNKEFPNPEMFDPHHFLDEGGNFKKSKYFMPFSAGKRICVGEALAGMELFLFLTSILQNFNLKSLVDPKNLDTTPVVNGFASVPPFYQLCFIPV

Some entries whose results are on file:
>  <Molecule>
Cc1ccc(-c2nn3c(O)c4c(nc3c2C)CCCC4)cc1

>  <System>
Cytochrome P450 2C9 (Homo sapiens, UniProt P11712)

>  <AC50>
6.31 µM (inconclusive)

$$$$
>  <Molecule>
CC(=O)c1c(O)cc(=O)n(-c2ccccc2)c1-c1cccc2ccccc12

>  <System>
Cytochrome P450 2C9 (Homo sapiens, UniProt P11712)

>  <AC50>
22.4 µM (inconclusive)

$$$$

The following molecules each have a reported value; give each one's AC50.
1. COc1ccccc1CNc1nc(-c2ccc(N(C)C)cc2)nc2ccccc12
2. CN(C)c1ccc(-c2cncnc2NCc2cccnc2)cc1

0.794 µM (inconclusive)
0.501 µM (inconclusive)

====

So I've got a bunch of molecules here, and I need their EC50 values.
Method summary: NIH3T3 cell viability loss – ATP luminescence, mouse fibroblasts, counter-screen, dose response (AID 2010);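 also: cells exposed to compound for about 90 hours before reading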
Format: functional, cell-based
Activity calls are given as the source filed them.

Some molecules with recorded EC50:
>  <Molecule>
CCOc1ccc(NCc2ccccc2OCc2cccc(F)c2)cc1

>  <EC50>
> 60 µM (not active)

$$$$
>  <Molecule>
COc1cc(OC)cc(C(=O)Nc2cccc(N3CCCC3)c2)c1

>  <EC50>
> 30 µM (not active)

$$$$
>  <Molecule>
COc1ccc(C(=O)/C=C/C(=O)N(CC(=O)NC2CCCCC2)Cc2ccccc2)c(O)c1

>  <EC50>
> 60 µM (inconclusive)

$$$$
>  <Molecule>
Cc1ccc(-n2c(C)cc(/C=N/NC(N)=S)c2C)cc1

>  <EC50>
> 60 µM (inconclusive)

$$$$
>  <Molecule>
O=C(NCCc1ccccc1F)C1CCCN1S(=O)(=O)c1ccc2ccccc2c1 (stereo not given)

>  <EC50>
> 60 µM (not active)

$$$$
>  <Molecule>
COc1ccc(CN(C)CC(=O)c2c(N)n(Cc3ccccc3)c(=O)n(C)c2=O)c(OC)c1

>  <EC50>
> 60 µM (not active)

$$$$
>  <Molecule>
COc1ccccc1CNC(=O)C(=O)NCC1CCCN1S(=O)(=O)c1cccs1 (stereo not given)

>  <EC50>
> 60 µM (not active)

$$$$
>  <Molecule>
CCN1CCN(c2ccc(S(=O)(=O)N3CCCCC3)cc2NC(=O)c2ccc([N+](=O)[O-])o2)CC1

>  <EC50>
23.8 µM (active)

$$$$

The following molecules each have a reported value; give each one's EC50.
1. Cc1cc2oc(=O)cc(CN3CCN(S(=O)(=O)/C=C/c4ccccc4)CC3)c2cc1C
2. COc1ccc(-c2nc(CN3CCN(Cc4cccc(Cl)c4)CC3)c(C)o2)cc1

> 60 µM (inconclusive)
> 60 µM (not active)

====

System: Corticotropin-releasing factor receptor 2/Corticotropin-releasing factor-binding protein (Homo sapiens, UniProt P24387+Q13324)
Sequence (Q13324 whole entry): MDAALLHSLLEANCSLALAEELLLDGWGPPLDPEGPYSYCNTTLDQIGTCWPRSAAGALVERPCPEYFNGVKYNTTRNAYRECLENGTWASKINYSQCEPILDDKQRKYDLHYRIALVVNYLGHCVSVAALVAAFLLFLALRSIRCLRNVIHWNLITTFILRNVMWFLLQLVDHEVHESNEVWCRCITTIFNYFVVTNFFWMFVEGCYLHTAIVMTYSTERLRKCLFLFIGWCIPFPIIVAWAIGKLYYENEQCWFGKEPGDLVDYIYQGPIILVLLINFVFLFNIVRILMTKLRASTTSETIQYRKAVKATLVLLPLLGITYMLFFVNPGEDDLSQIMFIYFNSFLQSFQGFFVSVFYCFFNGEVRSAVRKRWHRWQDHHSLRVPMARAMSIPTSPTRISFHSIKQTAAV
Sequence (P24387 whole entry): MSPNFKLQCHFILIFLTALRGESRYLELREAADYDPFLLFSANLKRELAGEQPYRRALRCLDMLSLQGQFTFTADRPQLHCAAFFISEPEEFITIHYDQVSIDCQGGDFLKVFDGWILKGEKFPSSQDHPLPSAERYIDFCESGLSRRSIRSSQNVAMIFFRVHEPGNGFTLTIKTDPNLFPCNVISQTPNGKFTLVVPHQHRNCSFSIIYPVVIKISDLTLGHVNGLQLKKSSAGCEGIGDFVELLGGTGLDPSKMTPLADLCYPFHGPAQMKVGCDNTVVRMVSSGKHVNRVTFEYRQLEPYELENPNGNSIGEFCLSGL
Method summary: Dose Response confirmation of uHTS hits for small molecule antagonists of the CRF-binding protein and CRF-R2 receptor complex.
Type: functional
Run conditions: read-out: IC50_Mean
Calls of active or inactive are those of the source.
Outcome (select one): active, inactive

>  <Record smiles>
O=C(Oc1c(Br)cc([N+](=O)[O-])cc1Br)c1cccnc1

>  <Assigned label>
active

$$$$
>  <Record smiles>
Cc1ccc2cccc(Oc3ncnc4scc(-c5ccccc5)c34)c2n1

>  <Assigned label>
active

$$$$
>  <Record smiles>
O=C(CCCOc1ccc(Cl)cc1)Nc1cccc(C(=O)O)c1

>  <Assigned label>
inactive

$$$$

Fill in: this test's call for Cc1ccc(S(=O)(=O)c2nc(S(C)(=O)=O)sc2N2CCOCC2)cc1 is ___
inactive

Tell me the assay call for COc1ccc(C(=O)COC(=O)c2cccnc2SC)cc1 please.
active

Recorded test call requested for N#Cc1ccc(CN(Nc2ccccc2)c2ccccc2)cc1
active

====

System: Nuclear receptor subfamily 0 group B member 1 (Homo sapiens, UniProt P51843)
Sequence (P51843 whole entry): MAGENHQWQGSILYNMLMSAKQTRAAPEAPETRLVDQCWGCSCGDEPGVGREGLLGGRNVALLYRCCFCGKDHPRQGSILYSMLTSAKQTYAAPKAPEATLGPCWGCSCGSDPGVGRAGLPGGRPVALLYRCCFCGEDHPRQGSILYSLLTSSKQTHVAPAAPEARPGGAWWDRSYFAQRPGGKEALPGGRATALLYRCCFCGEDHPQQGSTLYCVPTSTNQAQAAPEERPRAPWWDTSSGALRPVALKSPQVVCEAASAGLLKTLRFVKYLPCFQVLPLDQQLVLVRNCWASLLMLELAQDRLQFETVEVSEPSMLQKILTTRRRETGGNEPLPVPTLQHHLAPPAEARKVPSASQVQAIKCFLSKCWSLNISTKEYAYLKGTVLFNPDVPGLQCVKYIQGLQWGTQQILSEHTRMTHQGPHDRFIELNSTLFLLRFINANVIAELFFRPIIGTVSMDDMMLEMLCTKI
Method summary: Luminescence-based cell-based high throughput dose response assay for inhibitors of the orphan nuclear receptor subfamily 0, group B, member 1 (DAX1; NR0B1). [Related pubchem assays (depositor defined):AID504766, AID504790]
Assay type: functional
Activity calls are given as the source filed them.
For each entry below, report its IC50 value.

Sample answers from the record:
>  <Record smiles>
O=C(NNC(=O)c1ccccc1O)c1ccc(Br)cc1

>  <IC50>
> 67.5 µM (inactive)

$$$$
>  <Record smiles>
CCCCC(=O)/N=C(\N)Nc1nc2ccccc2o1

>  <IC50>
> 67.6 µM (inactive)

$$$$
>  <Record smiles>
O=c1c(-c2ccccc2)c[nH]n1-c1cccc([N+](=O)[O-])c1

>  <IC50>
> 67.5 µM (inactive)

$$$$

Here is the next item to consider.
Looking for the measured IC50 of COc1ccc(NC(=O)NNC(=O)CCC(=O)Nc2ccccc2Cl)cc1 , can you help?
> 67.5 µM (inactive)

====

System: Calpain-2 catalytic subunit (Sus scrofa, UniProt P43367)
Sequence (P43367 whole entry): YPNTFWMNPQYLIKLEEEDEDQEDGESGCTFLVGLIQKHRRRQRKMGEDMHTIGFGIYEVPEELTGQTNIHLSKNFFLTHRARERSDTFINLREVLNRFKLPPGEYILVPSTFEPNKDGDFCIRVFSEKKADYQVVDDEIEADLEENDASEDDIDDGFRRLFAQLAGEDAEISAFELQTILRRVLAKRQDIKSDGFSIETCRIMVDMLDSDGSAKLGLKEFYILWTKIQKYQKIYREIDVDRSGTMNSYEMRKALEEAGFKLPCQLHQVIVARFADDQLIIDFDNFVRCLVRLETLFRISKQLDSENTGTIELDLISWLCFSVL
Method summary: m-calpain protease blockers, concentration series – biochemical, fluorogenic peptide substrate, dose response (AID 1420)
Type: functional
Active and inactive are the calls of the source.
Measured parameter: IC50

>  <Compound>
O=[N+]([O-])c1cc(C(F)(F)F)ccc1NCCc1c[nH]c2ccc(O)cc12

>  <IC50>
7.48 µM (not active)

$$$$
>  <Compound>
Cc1cccc(N/C=C/C(=C(C#N)C#N)N(C)C)c1

>  <IC50>
15.6 µM (not active)

$$$$
>  <Compound>
O=C(Nc1nc(COc2ccccc2)cs1)C12CC3CC(CC(C3)C1)C2

>  <IC50>
2.03 µM (not active)

$$$$
>  <Compound>
CC(C)Cn1c(N)c(C(=O)COC(=O)c2ccc(F)cc2)c(=O)n(C)c1=O

>  <IC50>
4.8 µM (not active)

$$$$
>  <Compound>
CC(=O)c1ccc(NC(=O)c2noc(C(C)C)c2[N+](=O)[O-])cc1

>  <IC50>
3.66 µM (active)

$$$$

Respectfully, I request IC50 for each entry included below.
1. COc1ccc(N(C)S(=O)(=O)c2cccc(C(=O)NCC3CCCCC3)c2)cc1
2. O=C1CC(c2ccccc2)Cc2nc(N3CCc4ccccc4C3)ncc21 (configuration not stated)

["14.1 µM (not active)", "6.43 µM (not active)"]

====

Method summary: reduction of Shn3 3'UTR-driven luciferase in osteoblasts – cell-based, Clone20 osteoblasts, firefly luciferase, cherry-picked, dose response (AID 624132);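 also: firefly luciferase luminescence from reporter carrying the Shn3 3'UTR in osteoblasts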
Assay type: functional
Activity calls are given as the source filed them.
Measured parameter: AC50

Sample answers from the record:
>  <Molecule>
O=C(c1cc2sccc2n1Cc1ccccc1)N1CCN(c2nc3ccccc3s2)CC1

>  <Result>
1.09 µM (active)

$$$$
>  <Molecule>
C=C1C(=O)[C@]23C[C@H]1CCC2[C@]1(C)CCC[C@@](C)(C(=O)O)C1C[C@@H]3O (stereo partly specified)

>  <Result>
1.2 µM (active)

$$$$
>  <Molecule>
Cn1nc(C(C)(C)C)cc1C(=O)NCc1ccc2c(c1)OCO2

>  <Result>
1.17 µM (active)

$$$$
>  <Molecule>
O=C1CCc2cccc(O)c2N1

>  <Result>
12.2 µM (active)

$$$$
>  <Molecule>
COc1ccccc1CNc1nc(NCC2CC2)nc2ccsc12

>  <Result>
4.16 µM (active)

$$$$

Continue with the molecule presented below.
If you can, please state the reported AC50 value of CCOC(=O)c1c(CSCc2ccccc2)oc2ccc(O)c(CN(C)C)c12 .
9.79 µM (active)
